src = ChEMBL document CHEMBL3596124

experiment: Selectivity index, ratio of IC50 for human NB1RGB cells to IC50 for Trypanosoma brucei brucei GUTat 3.1 bloodstream forms; assay type: toxicity, cell-based; conditions: read-out: Ratio IC50
experimental.readout: selectivity ratio

>>> df
                                        smi  experimental_readout  quantitative_readout
0  COC(=O)C1=CO[C@@H]2O[C@H]3/C(=C\c4ccc(O)c(OC)c4)C(=O)O[C@]34C=C[C@H]1[C@H]24     selectivity ratio                  4.73

====

system: HL-60; assay: Cytotoxicity against human HL60 cells assessed as reduction in cell viability incubated for 48 hrs by MTT assay; type: functional, cell-based; settings: HL-60, 48 h
pIC50: −log10 of the molar value.
experimental.readout: pIC50

>>> print(df.to_string())
                                        smi  quantitative_readout
0  COC(=O)C1=CO[C@@H]2O[C@H]3/C(=C\c4ccc(O)c(OC)c4)C(=O)O[C@]34C=C[C@H]1[C@H]24                  5.41
